The measured values listed here are drawn from patent US10570177B2.

Could you please report measured pKd for the items listed next?
System: MJDCAG78 RNA
Assay Text: Isothermal titration calorimetry binding assay, expanded MJDCAG78 RNA
Assay Setup: ITC at 25° C.; 0.7 mM peptide titrated into 0.5 μM MJDCAG78 RNA; one binding site model; mean ± S.E.M.
Starred links: 1 amine or outer side, 2 acyl side, 3 side chain; linkers in the order of their positions; H or OH if unused. Non-standard residues stand in square brackets, D forms with d. gPNA = guanine base linked to N-(2-aminoethyl)-glycine backbone, Nc1nc2c(ncn2CC(=O)N(CCN[*:1])CC(=O)[*:2])c(=O)[nH]1; tPNA = thymine base linked to N-(2-aminoethyl)-glycine backbone, Cc1cn(CC(=O)N(CCN[*:1])CC(=O)[*:2])c(=O)[nH]c1=O; cPNA = cytosine base linked to N-(2-aminoethyl)-glycine backbone, Nc1ccn(CC(=O)N(CCN[*:1])CC(=O)[*:2])c(=O)n1
One number for each entry, as −log10 of the molar value.

[
  {
    "Substance": "H-cPNA-gPNA-tPNA-Asp-Gly-Lys-Ser-*-Gly-Ile-Ala-Tyr-Ile-Glu-Phe-Lys-NH2 (H-[cPNA][gPNA][tPNA]DGKSGIAYIEFK-NH2; not fully specified (residue 7); printed as H-cPNA-gPNA-tPNA-Asp-Gly-Lys-Ser-*-Gly-Ile-Ala-Tyr-Ile-Glu-Phe-Lys-NH2; also: N-terminal amino group replaced by hydrogen) [P3V13]",
    "pKd": 4.97
  }
]

Inquiry: Test system MJDCAG78 RNA; read-out pKd; what value for DGKSKGIAYIEWK [P3V4] ?
Reply text: 5.35

###

System: MJDCAG78 RNA
Assay Text: Isothermal titration calorimetry binding assay, expanded MJDCAG78 RNA
Assay Setup: ITC at 25° C.; 0.7 mM peptide titrated into 0.5 μM MJDCAG78 RNA; one binding site model; mean ± S.E.M.
Method: Experiments were carried out using a MicroCal iTC200 isothermal titration calorimeter (GE Healthcare) at 25° C. Data were analyzed using the Origin® scientific plotting software version 7 (Microcal Software Inc.). All RNAs and peptides were dissolved in binding buffer (20 mM MOPS, pH 7.0; 300 mM NaCl) and 0.7 mM of peptide was titrated into 0.5 μM of RNA for each experiment. […]
pKd: −log10 of the molar value. Starred links: 1 amine or outer side, 2 acyl side, 3 side chain; linkers in the order of their positions; H or OH if unused. Non-standard residues stand in square brackets, D forms with d. No end group written: not given here. gPNA = guanine base linked to N-(2-aminoethyl)-glycine backbone, Nc1nc2c(ncn2CC(=O)N(CCN[*:1])CC(=O)[*:2])c(=O)[nH]1; tPNA = thymine base linked to N-(2-aminoethyl)-glycine backbone, Cc1cn(CC(=O)N(CCN[*:1])CC(=O)[*:2])c(=O)[nH]c1=O; cPNA = cytosine base linked to N-(2-aminoethyl)-glycine backbone, Nc1ccn(CC(=O)N(CCN[*:1])CC(=O)[*:2])c(=O)n1; ∗∗ = not defined here
So basically: pKd at 5 or higher? That is condition met. Lower than 5? That is condition not met.

[
  {
    "Substance": "DGASKGIAYIEFK [P3MT1]",
    "Discrete Label": "condition not met"
  },
  {
    "Substance": "DGKSKGIAYIEFK [P3V7]",
    "Discrete Label": "condition met"
  },
  {
    "Substance": "H-tPNA-**-Lys-Ser-Lys-Gly-Ile-Ala-Tyr-Ile-Glu-Phe-Lys-NH2 (H-[tPNA]KSKGIAYIEFK-NH2; not fully specified (residue 1); printed as H-tPNA-**-Lys-Ser-Lys-Gly-Ile-Ala-Tyr-Ile-Glu-Phe-Lys-NH2; also: N-terminal amino group replaced by hydrogen) [P3V11]",
    "Discrete Label": "condition met"
  },
  {
    "Substance": "DGKSKGIAYIEYK [P3V3]",
    "Discrete Label": "condition met"
  },
  {
    "Substance": "Hi-cPNA-**-Lys-Ser-Lys-Gly-Ile-Ala-Tyr-Ile-Glu-Phe-Lys-NH2 (H-[cPNA][∗∗]KSKGIAYIEFK-NH2; not fully specified; printed as Hi-cPNA-**-Lys-Ser-Lys-Gly-Ile-Ala-Tyr-Ile-Glu-Phe-Lys-NH2; reading uncertain; also: N-terminal amino group replaced by hydrogen) [P3V24]",
    "Discrete Label": "condition met"
  },
  {
    "Substance": "DGRSRGIAYIEFK [P3V9]",
    "Discrete Label": "condition met"
  },
  {
    "Substance": "Ac-DGKSKGIAYIEFK-NH2 [P3V8]",
    "Discrete Label": "condition met"
  }
]

Let us examine a further case.
Inquiry: # check: pKd of H-Asp-Gly-Lys-Ser-Lys-Gly-Ile-Ala-Tyr-Ile-Glu-Phe-Lys-tPNA-cPNA-gPNA-NH2 (DGKSKGIAYIEFK[tPNA][cPNA][gPNA]-NH2; also: Asp N-terminal amino group replaced by hydrogen) [P3V23] is greater than or equal to 5
Reply text: condition not met
